Values from the RNAGym collection of RNA variant scans (doi:10.1101/gad.245936.114)

B1: tRNA (parent)
chain: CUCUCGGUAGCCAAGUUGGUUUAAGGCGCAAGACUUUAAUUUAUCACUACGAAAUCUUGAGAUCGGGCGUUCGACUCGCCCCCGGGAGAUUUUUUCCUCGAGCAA

- Variants of: B1
- experimentalDetails: nonsense suppression (GFP-seq) (ratio to wild type); higher = more function; SUP4oc tRNA, yeast GFP reporter sort-seq
Fewer inactive variants are shown than the library holds.
This section presents variants with their documented nonsense suppression values.

residueChange	nonsense suppression
C34G G86U	≤ 0.026
G59C G61C	≤ 0.026
U2G A14C G84C	≤ 0.026
C12U G18U A30C G84A A89C	≤ 0.026
U57A U58C C81G	≤ 0.026
G10C C27G G73C	≤ 0.026
A31G A33G C56A G65U	≤ 0.026
G15A U57C G59C G78A	≤ 0.026
G7U A9C U16C U57C	≤ 0.026
C1G U8C U55G G69C	≤ 0.026
A62C G78A	≤ 0.026
C27G U71G	≤ 0.026
G6A C79U G88C	≤ 0.026
G18A A30G	0.0263
G7U A30G	≤ 0.026
G7A A13U U58G G86C	≤ 0.026
A9G U16A	0.845
A31C G32U	≤ 0.026
C3U U35G G61A	≤ 0.026
U8A G61A C72G C81G	≤ 0.026
C1U C3G G86A	≤ 0.026
U17A A87G	1.19
G28C U57C	0.0349
A14G C64A G65A	≤ 0.026
G10A A60C G66C G78A	≤ 0.026
G18U C83A	≤ 0.026
U21A C75A	0.947
A14G U17A G59U	≤ 0.026
A24U U76C	0.131
C80U	0.697
U2C C5A C75U C83A	≤ 0.026
U16G C34U	≤ 0.026
U17C C29A G65A C72U C77U	≤ 0.026
G67A	0.188
G7U U8C	≤ 0.026
A31G A74U	0.029
